target: PLK1 (Homo sapiens, UniProt P53350); construct: endogenous in cells; host or cells: HeLa; assay: PLK1 protein degradation in HeLa cells, Western blotting (PLK1/GAPDH ratio); type: cell-based; settings: thymidine block and release, 6 hours compound incubation, 10 points three-fold from 3 μM, PLK1 to GAPDH ratio, read-out: Dmax
Sequence (P53350 whole entry): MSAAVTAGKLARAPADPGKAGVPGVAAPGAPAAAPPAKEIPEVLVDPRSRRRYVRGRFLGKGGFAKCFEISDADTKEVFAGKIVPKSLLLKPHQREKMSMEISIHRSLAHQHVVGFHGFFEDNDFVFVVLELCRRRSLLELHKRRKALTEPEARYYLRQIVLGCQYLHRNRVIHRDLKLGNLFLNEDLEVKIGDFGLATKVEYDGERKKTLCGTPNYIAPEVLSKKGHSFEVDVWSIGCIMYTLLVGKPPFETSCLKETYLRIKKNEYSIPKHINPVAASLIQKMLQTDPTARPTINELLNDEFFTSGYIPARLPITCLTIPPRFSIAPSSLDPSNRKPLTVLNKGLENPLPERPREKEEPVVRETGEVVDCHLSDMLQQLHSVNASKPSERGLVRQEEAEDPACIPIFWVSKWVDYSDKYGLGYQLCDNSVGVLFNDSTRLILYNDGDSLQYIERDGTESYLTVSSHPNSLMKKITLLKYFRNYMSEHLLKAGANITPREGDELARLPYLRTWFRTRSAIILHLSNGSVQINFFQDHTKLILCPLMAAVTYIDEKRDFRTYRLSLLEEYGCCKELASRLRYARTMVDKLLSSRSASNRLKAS
Here, each record is paired with measured Dmax data.
measure-name: Dmax

• COc1cc(C(=O)N[C@H]2CCN(C(=O)CCNC(=O)CNc3cccc4c3C(=O)N(C3CCC(=O)NC3=O)C4=O)C2)c(F)cc1Nc1ncc2c(n1)N(C1CCCC1)CC(F)(F)C(=O)N2C (stereo partly drawn) = < 60%
• CC(C)Oc1cc(C(=O)NC2CCN(CCOCCOCCNc3cccc4c3C(=O)N(C3CCC(=O)NC3=O)C4=O)CC2)c(F)cc1Nc1ncc2c(n1)N(C1CCCC1)CC(F)(F)C(=O)N2C (stereo not drawn) = 60 to 80%
• COc1cc(C(=O)NC2CCN(CCCOCCCNc3cccc4c3C(=O)N(C3CCC(=O)NC3=O)C4=O)CC2)c(F)cc1Nc1ncc2c(n1)N(C1CCCC1)CC(F)(F)C(=O)N2C (stereo not drawn) = 60 to 80%

###

target: PLK1 (Homo sapiens); construct: endogenous in cells; host or cells: HeLa; test: PLK1 protein degradation in HeLa cells, Western blotting (PLK1/GAPDH ratio); assay type: cell-based; conditions: 6 hours compound incubation, measured only if the grade of Dmax is A or B
measure-name: DC50

* COc1cc(C(=O)NC2CCN(CCOCCOCCOCCOCCNc3cccc4c3CN(C3CCC(=O)NC3=O)C4=O)CC2)c(F)cc1Nc1ncc2c(n1)N(C1CCCC1)CC(F)(F)C(=O)N2C (centres unmarked) [Compound 76] | ≤ 500 nM
* COc1cc(C(=O)NC2CCN(CCC(=O)NCCCCCCCNC(=O)COc3cccc4c3C(=O)N(C3CCC(=O)NC3=O)C4=O)CC2)c(F)cc1Nc1ncc2c(n1)N(C1CCCC1)CC(F)(F)C(=O)N2C (centres unmarked) [Compound 60] | ≤ 50 nM
* CC(C)Oc1cc(C(=O)NC2CCN(CCOCCOCCNc3cccc4c3C(=O)N(C3CCC(=O)NC3=O)C4=O)CC2)c(F)cc1Nc1ncc2c(n1)N(C1CCCC1)CC(F)(F)C(=O)N2C (centres unmarked) [Example 91] | ≤ 500 nM
* COc1cc(C(=O)NC2CCN(CCCCCCCCOCC(=O)N[C@H](C(=O)N3C[C@H](O)C[C@H]3C(=O)NCc3ccc(-c4scnc4C)cc3)C(C)(C)C)CC2)c(F)cc1Nc1ncc2c(n1)N(C1CCCC1)CC(F)(F)C(=O)N2C [Example 84] | ≤ 500 nM
* COc1cc(C(=O)NC2CCN(C(=O)N3CCN(c4cccc5c4C(=O)N(C4CCC(=O)NC4=O)C5=O)CC3)CC2)c(F)cc1Nc1ncc2c(n1)N(C1CCCC1)CC(F)(F)C(=O)N2C (centres unmarked) [Compound 69] | ≤ 50 nM

###

biological target: PLK1 (Homo sapiens, UniProt P53350); construct: endogenous in cells; host or cells: HeLa; experiment: PLK1 protein degradation in HeLa cells, Western blotting (PLK1/GAPDH ratio); type: cell-based; details: thymidine block and release, 6 hours compound incubation, 10 points three-fold from 3 μM, PLK1 to GAPDH ratio, read-out: Dmax
measure-name: Dmax

- COc1cc(C(=O)NC2CCN(CCOCCOCCOCCOCCNc3cccc4c3C(=O)N(C3CCC(=O)NC3=O)C4=O)C2)c(F)cc1Nc1ncc2c(n1)N(C1CCCC1)CC(F)(F)C(=O)N2C (stereo not drawn): ≥ 80%
- COc1cc(C(=O)NC2CCN(CCc3ccc(CC(=O)Nc4cccc5c4C(=O)N(C4CCC(=O)NC4=O)C5=O)cc3)CC2)c(F)cc1Nc1ncc2c(n1)N(C1CCCC1)CC(F)(F)C(=O)N2C (stereo not drawn): 60 to 80%
- COc1cc(C(=O)NC2CCN(CCCCCCNc3cccc4c3C(=O)N(C3CCC(=O)NC3=O)C4=O)CC2)c(F)cc1Nc1ncc2c(n1)N(C1CCCC1)CC(F)(F)C(=O)N2C (stereo not drawn): 60 to 80%

###

target: PLK1 (Homo sapiens); construct: endogenous in cells; host or cells: HeLa; assay: PLK1 protein degradation in HeLa cells, Western blotting (PLK1/GAPDH ratio); assay type: cell-based; details: thymidine block and release, 6 hours compound incubation, 10 points three-fold from 3 μM, PLK1 to GAPDH ratio, read-out: Dmax
Documented Dmax across a set of compounds
measure-name: Dmax

- COc1cc(C(=O)NC2CCN(C(=O)CN3CCN(c4ccc5c(c4)C(=O)N(C4CCC(=O)NC4=O)C5=O)CC3)CC2)c(F)cc1Nc1ncc2c(n1)N(C1CCCC1)CC(F)(F)C(=O)N2C (stereo not drawn): ≥ 80%
- COc1cc(C(=O)N[C@H]2CCN(C(=O)CN3CCN(c4cccc5c4C(=O)N(C4CCC(=O)NC4=O)C5=O)CC3)C2)c(F)cc1Nc1ncc2c(n1)N(C1CCCC1)CC(F)(F)C(=O)N2C (stereo partly drawn): ≥ 80%
- CN1C(=O)C(F)(F)CN(C2CCCC2)c2nc(Nc3ccc(C(=O)NC4CCN(C(=O)CCCNc5cccc6c5C(=O)N(C5CCC(=O)NC5=O)C6=O)CC4)cc3)ncc21 (stereo not drawn): ≥ 80%
- CN1C(=O)C(F)(F)CN(C2CCCC2)c2nc(Nc3cc(F)c(C(=O)NC4CCN(CCOCCOCCNc5cccc6c5C(=O)N(C5CCC(=O)NC5=O)C6=O)CC4)cc3OC3CCCC3)ncc21 (stereo not drawn): 60 to 80%
- COc1cc(C(=O)N[C@H]2CCN(CC(=O)NCCOCCNc3cccc4c3C(=O)N(C3CCC(=O)NC3=O)C4=O)C2)c(F)cc1Nc1ncc2c(n1)N(C1CCCC1)CC(F)(F)C(=O)N2C (stereo partly drawn): ≥ 80%
- COc1cc(C(=O)NC2CCN(CCOCCOCCNc3cccc4c3C(=O)N(C3CCC(=O)NC3=O)C4=O)CC2)c(F)cc1Nc1ncc2c(n1)N(C(C)C)CC(F)(F)C(=O)N2C (stereo not drawn): 60 to 80%

###

biological target: PLK1 (Homo sapiens, UniProt P53350); construct: endogenous in cells; host or cells: HeLa; test: PLK1 protein degradation in HeLa cells, Western blotting (PLK1/GAPDH ratio); format: cell-based; conditions: 6 hours compound incubation, measured only if the grade of Dmax is A or B
measure-name: DC50

- COc1cc(C(=O)NC2CCN(C(=O)COCCOCCNc3cccc4c3C(=O)N(C3CCC(=O)NC3=O)C4=O)CC2)c(F)cc1Nc1ncc2c(n1)N(C1CCCC1)CC(F)(F)C(=O)N2C (centres unmarked): ≤ 50 nM
- COc1cc(C(=O)N[C@H]2CCN(C(=O)CCN3CCN(c4ccc5c(c4)C(=O)N(C4CCC(=O)NC4=O)C5=O)CC3)C2)c(F)cc1Nc1ncc2c(n1)N(C1CCCC1)CC(F)(F)C(=O)N2C (some centres unmarked): ≤ 50 nM
- COc1cc(C(=O)NC2CCN(CCc3ccc(CC(=O)Nc4cccc5c4C(=O)N(C4CCC(=O)NC4=O)C5=O)cc3)CC2)c(F)cc1Nc1ncc2c(n1)N(C1CCCC1)CC(F)(F)C(=O)N2C (centres unmarked): > 500 nM
- COc1cc(C(=O)N[C@H]2CCN(C(=O)CCC(=O)N3CC4(C3)CN(c3cccc5c3C(=O)N(C3CCC(=O)NC3=O)C5=O)C4)C2)c(F)cc1Nc1ncc2c(n1)N(C1CCCC1)CC(F)(F)C(=O)N2C (some centres unmarked): ≤ 50 nM
- COc1cc(C(=O)NC2CCN(CCCCOCCCOCCOCCNc3cccc4c3C(=O)N(C3CCC(=O)NC3=O)C4=O)CC2)c(F)cc1Nc1ncc2c(n1)N(C1CCCC1)CC(F)(F)C(=O)N2C (centres unmarked): ≤ 50 nM

###

molecular target: PLK1 (Homo sapiens); construct: endogenous in cells; host or cells: HeLa; test: PLK1 protein degradation in HeLa cells, Western blotting (PLK1/GAPDH ratio); type: cell-based; details: thymidine block and release, 6 hours compound incubation, 10 points three-fold from 3 μM, PLK1 to GAPDH ratio, read-out: Dmax
# Dmax listing for each entry below
measure-name: Dmax

• CN1C(=O)C(F)(F)CN(C2CCCC2)c2nc(Nc3ccc(C(=O)NC4CCN(C(=O)CCN5CCN(c6cccc7c6C(=O)N(C6CCC(=O)NC6=O)C7=O)CC5)CC4)cc3)ncc21 (stereo not shown) [Compound 129] = ≥ 80%
• COc1cc(C(=O)N[C@H]2CCN(C(=O)CCC(=O)N3CCN(c4ccc5c(c4)C(=O)N(C4CCC(=O)NC4=O)C5=O)CC3)C2)c(F)cc1Nc1ncc2c(n1)N(C1CCCC1)CC(F)(F)C(=O)N2C (stereo partly shown) [Compound 144] = ≥ 80%
• COc1cc(C(=O)NC2CCN(CCCCCCCCNc3cccc4c3CN(C3CCC(=O)NC3=O)C4=O)CC2)c(F)cc1Nc1ncc2c(n1)N(C1CCCC1)CC(F)(F)C(=O)N2C (stereo not shown) [Compound 77] = 60 to 80%
• COc1cc(C(=O)NC2CCN(Cc3cn(CCOCCOCCOCCNc4cccc5c4C(=O)N(C4CCC(=O)NC4=O)C5=O)nn3)CC2)c(F)cc1Nc1ncc2c(n1)N(C1CCCC1)CC(F)(F)C(=O)N2C (stereo not shown) [Compound 45] = ≥ 80%
• COc1cc(C(=O)NC2CCN(CCCCCCCc3cncc(CNC(=O)COc4cccc5c4C(=O)N(C4CCC(=O)NC4=O)C5=O)c3)CC2)c(F)cc1Nc1ncc2c(n1)N(C1CCCC1)CC(F)(F)C(=O)N2C (stereo not shown) [Compound 64] = ≥ 80%
• COc1cc(C(=O)NC2CCN(CCOCCOCCOCCOCCNc3cccc4nnn(C5CCC(=O)NC5=O)c(=O)c34)CC2)c(F)cc1Nc1ncc2c(n1)N(C1CCCC1)CC(F)(F)C(=O)N2C (stereo not shown) [Compound 78] = ≥ 80%
• COc1cc(C(=O)NCCOCCCNc2cccc3c2C(=O)N(C2CCC(=O)NC2=O)C3=O)c(F)cc1Nc1ncc2c(n1)N(C1CCCC1)CC(F)(F)C(=O)N2C (stereo not shown) [Compound 155] = 60 to 80%
• COc1cc(C(=O)NCCOCCOCCOCCNc2cccc3c2C(=O)N(C2CCC(=O)NC2=O)C3=O)c(F)cc1Nc1ncc2c(n1)N(C1CCCC1)CC(F)(F)C(=O)N2C (stereo not shown) [Compound 153] = ≥ 80%
• COc1cc(C(=O)NCCOCCNc2cccc3c2C(=O)N(C2CCC(=O)NC2=O)C3=O)c(F)cc1Nc1ncc2c(n1)N(C1CCCC1)CC(F)(F)C(=O)N2C (stereo not shown) [Compound 151] = 60 to 80%
• COc1cc(C(=O)NCCCCCNC(=O)COc2cccc3c2C(=O)N(C2CCC(=O)NC2=O)C3=O)c(F)cc1Nc1ncc2c(n1)N(C1CCCC1)CC(F)(F)C(=O)N2C (stereo not shown) [Compound 162] = ≥ 80%
